# System Tested: HCV polymerase 1A (Δ21 NS5B, H77) (Hepatitis C virus genotype 1a)
# Construct: 20 to 50 nM Δ21 NS5B
# Sequence (P27958 2421-2990, stated change not applied): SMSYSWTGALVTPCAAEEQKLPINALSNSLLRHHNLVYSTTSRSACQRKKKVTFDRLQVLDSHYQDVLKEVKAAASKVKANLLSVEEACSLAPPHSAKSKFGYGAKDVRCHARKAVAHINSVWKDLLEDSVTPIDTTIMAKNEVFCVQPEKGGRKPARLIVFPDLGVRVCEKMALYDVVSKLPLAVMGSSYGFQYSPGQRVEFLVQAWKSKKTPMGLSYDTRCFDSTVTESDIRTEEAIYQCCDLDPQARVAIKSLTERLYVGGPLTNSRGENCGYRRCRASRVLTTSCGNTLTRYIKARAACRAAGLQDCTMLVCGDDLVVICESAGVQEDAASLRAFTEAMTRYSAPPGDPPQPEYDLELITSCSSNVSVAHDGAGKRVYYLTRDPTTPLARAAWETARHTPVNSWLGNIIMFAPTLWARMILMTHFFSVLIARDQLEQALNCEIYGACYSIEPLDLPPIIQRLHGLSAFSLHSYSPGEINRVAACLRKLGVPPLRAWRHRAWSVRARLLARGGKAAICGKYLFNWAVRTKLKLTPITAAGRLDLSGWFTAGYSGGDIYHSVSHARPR
# Assay Overview: biochemical
# Reported Conditions: IC50 1a
# Procedure: HCV Polymerase Inhibition Assay The reaction was initiated by the addition of 20 μM CTP, 20 μM ATP, 1 μM ^3H-UTP (10 mCi/umol), 5 nM template RNA and 0.1 U/μl RNase inhibitor (RNasin, Promega), and allowed to proceed for 2 to 4 h at room temperature. Reaction volume was 50 μl. […] After air-drying, 30 μl of Microscint 20 scintillation cocktail (Packard) was added to each well, and the retained cpm were determined by scintillation counting. […]
pIC50: −log10 of the molar value.
Observed Property: pIC50

[
  {
    "Compound": "COc1c(C(=O)Nc2ccc(CC(=O)O)cc2)cc(N2CCC(=O)NC2=O)cc1C(C)(C)C [IA-L3-1.30]",
    "System Tested": "HCV polymerase 1A (Δ21 NS5B, H77) (Hepatitis C virus genotype 1a)",
    "Reported": "< 6.00"
  },
  {
    "Compound": "COc1cc(NS(C)(=O)=O)ccc1C(=O)Nc1cc(N2CCC(=O)NC2=O)cc(C(C)(C)C)c1OC [IA-L4-1.11]",
    "System Tested": "HCV polymerase 1A (Δ21 NS5B, H77) (Hepatitis C virus genotype 1a)",
    "Reported": "> 8.00"
  },
  {
    "Compound": "COc1c(C(=O)Nc2ccc(S(C)(=O)=O)cc2)cc(N2CCC(=O)NC2=O)cc1C(C)(C)C [IA-L3-1.78]",
    "System Tested": "HCV polymerase 1A (Δ21 NS5B, H77) (Hepatitis C virus genotype 1a)",
    "Reported": "< 6.00"
  },
  {
    "Compound": "COc1c(C#Cc2ccc(NS(C)(=O)=O)cc2C)cc(-n2ccc(=O)[nH]c2=O)cc1C(C)(C)C [IB-L2-1.1]",
    "System Tested": "HCV polymerase 1A (Δ21 NS5B, H77) (Hepatitis C virus genotype 1a)",
    "Reported": "> 8.00"
  },
  {
    "Compound": "COc1cc(NS(C)(=O)=O)ccc1C(=O)Nc1cc(-n2ccc(=O)[nH]c2=O)cc(C(C)(C)C)c1OC [IB-L4-1.1]",
    "System Tested": "HCV polymerase 1A (Δ21 NS5B, H77) (Hepatitis C virus genotype 1a)",
    "Reported": "> 8.00"
  },
  {
    "Compound": "COc1c(-c2ccc3c(c2)CCC3NNS(C)(=O)=O)cc(-n2ccc(=O)[nH]c2=O)cc1C(C)(C)C (centres unmarked) [IB-L0-2.31]",
    "System Tested": "HCV polymerase 1A (Δ21 NS5B, H77) (Hepatitis C virus genotype 1a)",
    "Reported": "7.00 to 8.00"
  },
  {
    "Compound": "COc1c(-c2ccc3c(c2)CCC3NS(C)(=O)=O)cc(-n2ccc(=O)[nH]c2=O)cc1C(C)(C)C (centres unmarked) [IB-L0-2.44]",
    "System Tested": "HCV polymerase 1A (Δ21 NS5B, H77) (Hepatitis C virus genotype 1a)",
    "Reported": "6.00 to 7.00"
  },
  {
    "Compound": "COc1c(-c2cccc(/C=N/NS(C)(=O)=O)c2)cc(N2CCC(=O)NC2=O)cc1C(C)(C)C [IA-L0-1.7]",
    "System Tested": "HCV polymerase 1A (Δ21 NS5B, H77) (Hepatitis C virus genotype 1a)",
    "Reported": "< 6.00"
  },
  {
    "Compound": "COc1c(-c2ccc(CCNS(C)(=O)=O)cc2)cc(-n2ccc(=O)[nH]c2=O)cc1C(C)(C)C [IB-L0-1.4]",
    "System Tested": "HCV polymerase 1A (Δ21 NS5B, H77) (Hepatitis C virus genotype 1a)",
    "Reported": "7.00 to 8.00"
  },
  {
    "Compound": "COc1c(-c2ccc3c(c2)CCC3C(=O)NS(C)(=O)=O)cc(-n2ccc(=O)[nH]c2=O)cc1C(C)(C)C (centres unmarked) [IB-L0-2.34]",
    "System Tested": "HCV polymerase 1A (Δ21 NS5B, H77) (Hepatitis C virus genotype 1a)",
    "Reported": "7.00 to 8.00"
  },
  {
    "Compound": "CC(C)(C)c1cc(N2CCC(=O)NC2=O)cc(C(=O)Nc2nccs2)c1O [IA-L3-1.104]",
    "System Tested": "HCV polymerase 1A (Δ21 NS5B, H77) (Hepatitis C virus genotype 1a)",
    "Reported": "< 6.00"
  },
  {
    "Compound": "COc1c(C(=O)Nc2ccc(N(COC(C)=O)S(C)(=O)=O)cc2)cc(N2CCC(=O)NC2=O)cc1C(C)(C)C",
    "System Tested": "HCV polymerase 1A (Δ21 NS5B, H77) (Hepatitis C virus genotype 1a)",
    "Reported": "6.00 to 7.00"
  },
  {
    "Compound": "COc1c(C#Cc2ccc(NS(C)(=O)=O)cc2C)cc(N2CCC(=O)NC2=O)cc1C(C)(C)C [IA-L2-1.9]",
    "System Tested": "HCV polymerase 1A (Δ21 NS5B, H77) (Hepatitis C virus genotype 1a)",
    "Reported": "> 8.00"
  },
  {
    "Compound": "COc1c(C(=O)Nc2ccc(OS(C)(=O)=O)cc2)cc(N2CCC(=O)NC2=O)cc1C(C)(C)C [IA-L3-1.41]",
    "System Tested": "HCV polymerase 1A (Δ21 NS5B, H77) (Hepatitis C virus genotype 1a)",
    "Reported": "6.00 to 7.00"
  },
  {
    "Compound": "COc1c(NC(=O)c2ccc(NS(C)(=O)=O)cc2Cl)cc(N2CCC(=O)NC2=O)cc1C(C)(C)C [IA-L4-1.12]",
    "System Tested": "HCV polymerase 1A (Δ21 NS5B, H77) (Hepatitis C virus genotype 1a)",
    "Reported": "7.00 to 8.00"
  },
  {
    "Compound": "CC(C)CS(=O)(=O)Nc1ccc(NC(=O)c2cc(N3CCC(=O)NC3=O)cc(C(C)(C)C)c2O)cc1 [IA-L3-1.7]",
    "System Tested": "HCV polymerase 1A (Δ21 NS5B, H77) (Hepatitis C virus genotype 1a)",
    "Reported": "6.00 to 7.00"
  },
  {
    "Compound": "COc1ccc(CN(c2ccc(NC(=O)c3cc(N4CCC(=O)NC4=O)cc(C(C)(C)C)c3OC)cc2)S(C)(=O)=O)cc1 [IA-L3-1.67]",
    "System Tested": "HCV polymerase 1A (Δ21 NS5B, H77) (Hepatitis C virus genotype 1a)",
    "Reported": "< 6.00"
  },
  {
    "Compound": "COc1c(C(=O)Nc2ccc(NS(=O)(=O)CCN(CCO)CCO)cc2)cc(N2CCC(=O)NC2=O)cc1C(C)(C)C [IA-L3-1.56]",
    "System Tested": "HCV polymerase 1A (Δ21 NS5B, H77) (Hepatitis C virus genotype 1a)",
    "Reported": "6.00 to 7.00"
  },
  {
    "Compound": "COc1c(C(=O)Nc2ccc(NS(=O)(=O)CC(F)(F)F)cc2)cc(N2CCC(=O)NC2=O)cc1C(C)(C)C [IA-L3-1.55]",
    "System Tested": "HCV polymerase 1A (Δ21 NS5B, H77) (Hepatitis C virus genotype 1a)",
    "Reported": "6.00 to 7.00"
  },
  {
    "Compound": "COc1c(C(=O)Nc2ccc(N(COC(=O)C(C)(C)C)S(C)(=O)=O)cc2)cc(N2CCC(=O)N(COC(=O)C(C)(C)C)C2=O)cc1C(C)(C)C [IA-L3-1.116]",
    "System Tested": "HCV polymerase 1A (Δ21 NS5B, H77) (Hepatitis C virus genotype 1a)",
    "Reported": "< 6.00"
  },
  {
    "Compound": "COc1c(C(=O)Nc2ccc(NS(=O)(=O)CC(C)C)cc2)cc(N2CCC(=O)NC2=O)cc1C(C)(C)C [IA-L3-1.52]",
    "System Tested": "HCV polymerase 1A (Δ21 NS5B, H77) (Hepatitis C virus genotype 1a)",
    "Reported": "6.00 to 7.00"
  },
  {
    "Compound": "COc1c(-c2ccc3c(CNS(C)(=O)=O)csc3c2)cc(-n2ccc(=O)[nH]c2=O)cc1C(C)(C)C [IB-L0-2.11]",
    "System Tested": "HCV polymerase 1A (Δ21 NS5B, H77) (Hepatitis C virus genotype 1a)",
    "Reported": "> 8.00"
  },
  {
    "Compound": "CCCC(=O)N(c1ccc(NC(=O)c2cc(N3CCC(=O)NC3=O)cc(C(C)(C)C)c2OC)cc1)S(C)(=O)=O [IA-L3-1.71]",
    "System Tested": "HCV polymerase 1A (Δ21 NS5B, H77) (Hepatitis C virus genotype 1a)",
    "Reported": "6.00 to 7.00"
  },
  {
    "Compound": "COc1c(CNc2ccc(NS(C)(=O)=O)cc2)cc(N2CCC(=O)NC2=O)cc1C(C)(C)C [IA-L9-1.4]",
    "System Tested": "HCV polymerase 1A (Δ21 NS5B, H77) (Hepatitis C virus genotype 1a)",
    "Reported": "7.00 to 8.00"
  },
  {
    "Compound": "COc1c(-c2ccc3c(CNS(C)(=O)=O)coc3c2)cc(-n2ccc(=O)[nH]c2=O)cc1C(C)(C)C [IB-L0-2.18]",
    "System Tested": "HCV polymerase 1A (Δ21 NS5B, H77) (Hepatitis C virus genotype 1a)",
    "Reported": "> 8.00"
  },
  {
    "Compound": "CC(C)(C)c1cc(N2CCC(=O)NC2=O)cc(NC(=O)c2ccc(CS(C)(=O)=O)cc2)c1O [IA-L4-1.4]",
    "System Tested": "HCV polymerase 1A (Δ21 NS5B, H77) (Hepatitis C virus genotype 1a)",
    "Reported": "< 6.00"
  },
  {
    "Compound": "CCN(c1ccc(NC(=O)c2cc(N3CCC(=O)NC3=O)cc(C(C)(C)C)c2OC)cc1)S(C)(=O)=O [IA-L3-1.63]",
    "System Tested": "HCV polymerase 1A (Δ21 NS5B, H77) (Hepatitis C virus genotype 1a)",
    "Reported": "< 6.00"
  },
  {
    "Compound": "COc1c(/C=C\\c2ccc(NS(C)(=O)=O)cc2)cc(N2CCC(=O)NC2=O)cc1C(C)(C)C [IA-L1-1.10]",
    "System Tested": "HCV polymerase 1A (Δ21 NS5B, H77) (Hepatitis C virus genotype 1a)",
    "Reported": "7.00 to 8.00"
  },
  {
    "Compound": "COc1c(C(=O)Nc2ccc(N(C)S(C)(=O)=O)cc2)cc(N2CCC(=O)NC2=O)cc1C(C)(C)C [IA-L3-1.62]",
    "System Tested": "HCV polymerase 1A (Δ21 NS5B, H77) (Hepatitis C virus genotype 1a)",
    "Reported": "6.00 to 7.00"
  }
]
